molecular target: Delta-type opioid receptor (Homo sapiens, UniProt P41143); assay: Displacement of [3H]DADLE from recombinant human DOR after 60 mins by scintillation counting analysis
observable: IC50

> print(dat)
                    structure.smiles.string   result
1  O=C(Nc1ccc(OC(F)F)nc1)NC1CCN(c2ncnc3c2nc(-c2ccccc2Cl)n3-c2ccc(Cl)cc2)CC1  > 10 µM

---

target: Acetylcholinesterase (Homo sapiens, UniProt P22303); assay: Activity at human recombinant ACHE using acetylthiocholine as substrate measured after 30 mins by spectrophotometric assay
Sequence (P22303 whole entry): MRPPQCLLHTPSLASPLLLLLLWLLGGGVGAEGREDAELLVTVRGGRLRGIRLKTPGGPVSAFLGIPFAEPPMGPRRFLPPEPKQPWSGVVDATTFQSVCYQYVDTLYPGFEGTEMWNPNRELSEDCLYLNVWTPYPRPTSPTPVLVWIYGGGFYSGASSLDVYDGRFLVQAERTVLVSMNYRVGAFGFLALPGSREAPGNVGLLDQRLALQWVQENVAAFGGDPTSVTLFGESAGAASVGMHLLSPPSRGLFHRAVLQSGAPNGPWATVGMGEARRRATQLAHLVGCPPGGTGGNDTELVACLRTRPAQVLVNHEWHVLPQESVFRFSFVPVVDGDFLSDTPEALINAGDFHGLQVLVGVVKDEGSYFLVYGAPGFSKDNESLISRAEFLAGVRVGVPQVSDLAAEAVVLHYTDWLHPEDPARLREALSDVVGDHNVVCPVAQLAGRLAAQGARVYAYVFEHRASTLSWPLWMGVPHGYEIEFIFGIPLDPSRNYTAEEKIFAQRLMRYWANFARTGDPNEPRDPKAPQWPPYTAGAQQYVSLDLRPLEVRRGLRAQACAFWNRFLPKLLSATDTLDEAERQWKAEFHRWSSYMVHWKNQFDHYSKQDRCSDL
pIC50: −log10 of the molar value.
observable: pIC50

> print(dat)
                    structure.smiles.string  observable  result
1  O=C(Nc1ccc(OC(F)F)nc1)NC1CCN(c2ncnc3c2nc(-c2ccccc2Cl)n3-c2ccc(Cl)cc2)CC1       pIC50  < 5.00

---

target: D(2) dopamine receptor (Homo sapiens); experiment: Displacement of [3H]7-OH-DPAT from recombinant human D2s receptor after 60 mins by scintillation counting analysis
Sequence (P14416 whole entry): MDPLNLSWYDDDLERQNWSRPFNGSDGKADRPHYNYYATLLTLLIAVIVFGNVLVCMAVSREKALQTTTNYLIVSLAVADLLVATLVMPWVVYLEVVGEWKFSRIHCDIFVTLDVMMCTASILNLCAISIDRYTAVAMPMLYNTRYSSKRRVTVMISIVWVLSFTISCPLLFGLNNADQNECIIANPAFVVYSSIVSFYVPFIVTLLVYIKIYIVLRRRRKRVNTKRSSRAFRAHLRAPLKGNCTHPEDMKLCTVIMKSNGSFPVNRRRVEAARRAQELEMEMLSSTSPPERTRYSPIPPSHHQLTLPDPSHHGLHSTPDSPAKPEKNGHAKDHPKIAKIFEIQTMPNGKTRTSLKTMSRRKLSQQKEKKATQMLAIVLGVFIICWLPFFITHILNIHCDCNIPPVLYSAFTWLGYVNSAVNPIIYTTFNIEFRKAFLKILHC
observable: EC50

> print(dat)
                    structure.smiles.string  observable   result
1  O=C(Nc1ccc(OC(F)F)nc1)NC1CCN(c2ncnc3c2nc(-c2ccccc2Cl)n3-c2ccc(Cl)cc2)CC1        EC50  > 10 µM

---

target: Beta-2 adrenergic receptor (Homo sapiens); experiment: Displacement of [3H](-)CGP12177 from recombinant human beta2 adrenergic receptor after 120 mins by scintillation counting analysis
observable: IC50

> print(dat)
                    structure.smiles.string   result
1  O=C(Nc1ccc(OC(F)F)nc1)NC1CCN(c2ncnc3c2nc(-c2ccccc2Cl)n3-c2ccc(Cl)cc2)CC1  > 10 µM

---

biological target: 5-hydroxytryptamine receptor 1A (Homo sapiens); experiment: Displacement of [3H]8-OH-DPAT from recombinant human 5HT1A after 60 mins by scintillation counting analysis
Sequence (P08908 whole entry): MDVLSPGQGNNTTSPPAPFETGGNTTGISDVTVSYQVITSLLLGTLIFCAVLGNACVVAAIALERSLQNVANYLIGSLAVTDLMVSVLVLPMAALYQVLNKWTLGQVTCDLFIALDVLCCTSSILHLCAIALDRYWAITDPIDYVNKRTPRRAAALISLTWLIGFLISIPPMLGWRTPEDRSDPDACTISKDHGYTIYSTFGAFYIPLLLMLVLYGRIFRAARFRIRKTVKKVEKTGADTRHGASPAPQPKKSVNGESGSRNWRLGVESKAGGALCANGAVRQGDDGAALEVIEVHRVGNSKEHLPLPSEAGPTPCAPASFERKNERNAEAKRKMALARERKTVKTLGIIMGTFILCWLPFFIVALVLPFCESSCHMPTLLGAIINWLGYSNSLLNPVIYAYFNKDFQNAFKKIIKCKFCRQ
observable: EC50

> print(dat)
                    structure.smiles.string   result
1  O=C(Nc1ccc(OC(F)F)nc1)NC1CCN(c2ncnc3c2nc(-c2ccccc2Cl)n3-c2ccc(Cl)cc2)CC1  > 10 µM

---

molecular target: Muscarinic acetylcholine receptor M3 (Homo sapiens, UniProt P20309); experiment: Displacement of [3H]4-DAMP from recombinant human M3 receptor after 60 mins by scintillation counting analysis
pIC50: −log10 of the molar value.
observable: pIC50

> print(dat)
                    structure.smiles.string                               system.name  observable  result
1  O=C(Nc1ccc(OC(F)F)nc1)NC1CCN(c2ncnc3c2nc(-c2ccccc2Cl)n3-c2ccc(Cl)cc2)CC1  Muscarinic acetylcholine receptor M3 (Homo sapiens, UniProt P20309)       pIC50  < 5.00

---

molecular target: Prostaglandin G/H synthase 1 (Homo sapiens, UniProt P23219); experiment: Activity at human recombinant COX1 using arachidonic acid as substrate measured after 3 mins by ADHP reagent based fluorescence assay
Sequence (P23219 whole entry): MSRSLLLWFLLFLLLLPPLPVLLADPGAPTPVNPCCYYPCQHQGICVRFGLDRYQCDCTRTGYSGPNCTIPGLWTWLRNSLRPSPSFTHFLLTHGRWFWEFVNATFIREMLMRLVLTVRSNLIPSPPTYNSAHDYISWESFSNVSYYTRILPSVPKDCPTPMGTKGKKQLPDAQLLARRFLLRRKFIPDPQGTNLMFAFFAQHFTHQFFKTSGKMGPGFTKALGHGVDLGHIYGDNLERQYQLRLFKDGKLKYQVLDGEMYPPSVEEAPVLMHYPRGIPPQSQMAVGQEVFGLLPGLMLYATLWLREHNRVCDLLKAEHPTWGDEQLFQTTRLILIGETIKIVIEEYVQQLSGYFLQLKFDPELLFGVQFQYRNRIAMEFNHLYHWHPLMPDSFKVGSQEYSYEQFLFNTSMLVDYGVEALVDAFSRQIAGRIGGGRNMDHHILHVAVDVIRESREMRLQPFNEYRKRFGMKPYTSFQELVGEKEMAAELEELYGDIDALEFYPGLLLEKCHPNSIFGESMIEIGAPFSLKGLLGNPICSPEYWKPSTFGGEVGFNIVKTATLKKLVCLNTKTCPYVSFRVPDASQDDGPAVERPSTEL
observable: IC50

> print(dat)
                    structure.smiles.string   result
1  O=C(Nc1ccc(OC(F)F)nc1)NC1CCN(c2ncnc3c2nc(-c2ccccc2Cl)n3-c2ccc(Cl)cc2)CC1  > 10 µM

---

Each item that follows carries a reported Ki.
target: Cannabinoid receptor 2 (Homo sapiens, UniProt P34972); test: Displacement of [3H]CP55940 from human CB2 receptor expressed in HEK293 cell membranes
Sequence (P34972 whole entry): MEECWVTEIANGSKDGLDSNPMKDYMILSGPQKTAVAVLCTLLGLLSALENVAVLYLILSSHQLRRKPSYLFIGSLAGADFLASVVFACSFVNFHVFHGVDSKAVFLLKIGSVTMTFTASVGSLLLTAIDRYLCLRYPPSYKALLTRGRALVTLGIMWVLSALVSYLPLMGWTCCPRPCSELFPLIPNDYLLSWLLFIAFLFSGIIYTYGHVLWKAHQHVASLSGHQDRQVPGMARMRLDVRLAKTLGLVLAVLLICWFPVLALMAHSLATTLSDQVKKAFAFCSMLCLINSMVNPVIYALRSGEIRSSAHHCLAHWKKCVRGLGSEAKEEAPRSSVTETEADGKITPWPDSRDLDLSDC
observable: Ki

> print(dat)
                    structure.smiles.string  observable      result
1  O=C(NCc1ccccc1F)NC1CCN(c2ncnc3c2nc(-c2ccccc2Cl)n3-c2ccc(Cl)cc2)CC1          Ki      220 nM
2  CC1(NC(=O)NC2CCN(c3ncnc4c3nc(-c3ccccc3Cl)n4-c3ccc(Cl)cc3)CC2)CCC(F)(F)CC1          Ki     7500 nM
3  COCCN(C)C(=O)NC1CCN(c2ncnc3c2nc(-c2ccccc2Cl)n3-c2ccc(Cl)cc2)CC1          Ki     2300 nM
4  O=C(NC1CCN(c2ncnc3c2nc(-c2ccccc2Cl)n3-c2ccc(Cl)cc2)CC1)NC1(C(F)(F)F)CCCC1          Ki  > 10000 nM

---

biological target: Amine oxidase [flavin-containing] A (Rattus norvegicus, UniProt P21396); assay: Displacement of [3H]Ro41-1049 from rat brain MAOA after 60 mins by scintillation counting analysis
Sequence (P21396 whole entry): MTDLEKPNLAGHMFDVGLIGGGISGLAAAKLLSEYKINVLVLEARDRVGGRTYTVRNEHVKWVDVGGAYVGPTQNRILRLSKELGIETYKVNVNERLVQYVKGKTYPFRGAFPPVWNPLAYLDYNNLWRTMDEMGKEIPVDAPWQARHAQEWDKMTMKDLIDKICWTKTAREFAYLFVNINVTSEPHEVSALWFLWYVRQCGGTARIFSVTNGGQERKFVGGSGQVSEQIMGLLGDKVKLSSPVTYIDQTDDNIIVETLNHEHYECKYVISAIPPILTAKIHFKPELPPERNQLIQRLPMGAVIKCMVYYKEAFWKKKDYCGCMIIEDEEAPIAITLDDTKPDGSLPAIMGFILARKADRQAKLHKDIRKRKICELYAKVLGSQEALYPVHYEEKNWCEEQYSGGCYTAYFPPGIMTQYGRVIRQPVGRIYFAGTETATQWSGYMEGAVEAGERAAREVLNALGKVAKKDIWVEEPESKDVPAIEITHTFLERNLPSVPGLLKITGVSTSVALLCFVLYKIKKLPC
observable: EC50

> print(dat)
                    structure.smiles.string  observable   result
1  O=C(Nc1ccc(OC(F)F)nc1)NC1CCN(c2ncnc3c2nc(-c2ccccc2Cl)n3-c2ccc(Cl)cc2)CC1        EC50  > 10 µM

---

molecular target: 5-hydroxytryptamine receptor 2A (Homo sapiens); test: Displacement of [125I](+/-)DOI from recombinant human 5HT2A receptor after 60 mins by scintillation counting analysis
Sequence (P28223 whole entry): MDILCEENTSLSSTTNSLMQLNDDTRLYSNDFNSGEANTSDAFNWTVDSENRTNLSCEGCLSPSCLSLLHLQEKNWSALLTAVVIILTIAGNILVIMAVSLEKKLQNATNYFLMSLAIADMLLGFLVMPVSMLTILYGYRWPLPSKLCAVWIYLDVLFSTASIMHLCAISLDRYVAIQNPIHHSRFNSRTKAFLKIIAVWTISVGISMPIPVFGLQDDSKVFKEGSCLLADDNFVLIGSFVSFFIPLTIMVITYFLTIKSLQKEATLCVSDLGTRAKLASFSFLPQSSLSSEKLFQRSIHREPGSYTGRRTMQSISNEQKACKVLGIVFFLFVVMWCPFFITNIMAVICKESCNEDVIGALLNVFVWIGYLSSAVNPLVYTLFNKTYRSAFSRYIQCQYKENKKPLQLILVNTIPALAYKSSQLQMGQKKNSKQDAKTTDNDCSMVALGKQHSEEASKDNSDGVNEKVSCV
observable: EC50

> print(dat)
                    structure.smiles.string   result
1  O=C(Nc1ccc(OC(F)F)nc1)NC1CCN(c2ncnc3c2nc(-c2ccccc2Cl)n3-c2ccc(Cl)cc2)CC1  > 10 µM

---

// Ki collected for Cannabinoid receptor 2 (Homo sapiens, UniProt P34972)
observable: Ki (nM)

> print(dat)
                    structure.smiles.string  unit.label  cmp  numeric.value
1  CC1(NS(=O)(=O)NC2CCCCC2)CCN(c2ncnc3c2nc(-c2ccccc2Cl)n3-c2ccc(Cl)cc2)CC1          nM    =            740
2  CC1(NC(=O)Nc2ccc(OC(F)F)nc2)CCN(c2ncnc3c2nc(-c2ccccc2Cl)n3-c2ccc(Cl)cc2)CC1          nM    >          10000
3  CC1(NC(=O)NC2CCC(F)(F)CC2)CCN(c2ncnc3c2nc(-c2ccccc2Cl)n3-c2ccc(Cl)cc2)CC1          nM    >          10000
4  CCCN(C)C(=O)NC1CCN(c2ncnc3c2nc(-c2ccccc2Cl)n3-c2ccc(Cl)cc2)CC1          nM    =            630

---

Target: Alpha-1A adrenergic receptor (Homo sapiens)
Sequence (P35348 whole entry): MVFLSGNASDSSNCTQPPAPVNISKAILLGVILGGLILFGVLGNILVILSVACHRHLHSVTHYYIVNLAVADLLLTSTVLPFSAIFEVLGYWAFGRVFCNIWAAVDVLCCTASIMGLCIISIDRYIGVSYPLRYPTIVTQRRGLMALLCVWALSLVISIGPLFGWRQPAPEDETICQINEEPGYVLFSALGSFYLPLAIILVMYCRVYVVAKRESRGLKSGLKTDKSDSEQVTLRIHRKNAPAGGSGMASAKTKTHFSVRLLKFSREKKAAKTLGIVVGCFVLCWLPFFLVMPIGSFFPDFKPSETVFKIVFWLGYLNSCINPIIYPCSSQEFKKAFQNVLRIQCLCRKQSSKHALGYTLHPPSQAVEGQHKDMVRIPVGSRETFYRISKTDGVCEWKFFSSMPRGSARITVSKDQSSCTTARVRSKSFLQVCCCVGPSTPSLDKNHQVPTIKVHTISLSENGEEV
Assay: Displacement of [3H]prazosin from recombinant human alpha 1A adrenoceptor after 60 mins by scintillation counting analysis
observable: EC50

> print(dat)
                    structure.smiles.string                               system.name   result
1  O=C(Nc1ccc(OC(F)F)nc1)NC1CCN(c2ncnc3c2nc(-c2ccccc2Cl)n3-c2ccc(Cl)cc2)CC1  Alpha-1A adrenergic receptor (Homo sapiens)  > 10 µM

---

target: Histamine H2 receptor (Homo sapiens, UniProt P25021); experiment: Displacement of [125I]APT from recombinant human H2 receptor after 120 mins by scintillation counting analysis
pEC50: −log10 of the molar value.
observable: pEC50

> print(dat)
                    structure.smiles.string                               system.name  result
1  O=C(Nc1ccc(OC(F)F)nc1)NC1CCN(c2ncnc3c2nc(-c2ccccc2Cl)n3-c2ccc(Cl)cc2)CC1  Histamine H2 receptor (Homo sapiens, UniProt P25021)  < 5.00

---

molecular target: Kappa-type opioid receptor (Homo sapiens, UniProt P41145); assay: Displacement of [3H]U69593 from recombinant human KOR after 60 mins by scintillation counting analysis
Sequence (P41145 whole entry): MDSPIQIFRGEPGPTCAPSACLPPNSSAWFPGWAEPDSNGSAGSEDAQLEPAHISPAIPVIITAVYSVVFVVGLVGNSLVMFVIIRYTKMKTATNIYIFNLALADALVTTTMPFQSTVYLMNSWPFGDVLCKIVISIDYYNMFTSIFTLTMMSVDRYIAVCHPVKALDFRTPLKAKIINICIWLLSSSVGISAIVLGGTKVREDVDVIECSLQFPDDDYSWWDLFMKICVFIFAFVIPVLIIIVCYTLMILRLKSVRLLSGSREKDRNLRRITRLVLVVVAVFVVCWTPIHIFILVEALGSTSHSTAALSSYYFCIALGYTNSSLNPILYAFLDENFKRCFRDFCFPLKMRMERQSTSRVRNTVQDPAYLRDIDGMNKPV
pIC50: −log10 of the molar value.
observable: pIC50

> print(dat)
                    structure.smiles.string  result
1  O=C(Nc1ccc(OC(F)F)nc1)NC1CCN(c2ncnc3c2nc(-c2ccccc2Cl)n3-c2ccc(Cl)cc2)CC1  < 5.00

---

biological target: cGMP-inhibited 3',5'-cyclic phosphodiesterase 3A (Homo sapiens, UniProt Q14432); assay: Activity at human recombinant PDE3A using [3H]cAMP as substrate measured after 15 mins by scintillation counting analysis
Sequence (Q14432 whole entry): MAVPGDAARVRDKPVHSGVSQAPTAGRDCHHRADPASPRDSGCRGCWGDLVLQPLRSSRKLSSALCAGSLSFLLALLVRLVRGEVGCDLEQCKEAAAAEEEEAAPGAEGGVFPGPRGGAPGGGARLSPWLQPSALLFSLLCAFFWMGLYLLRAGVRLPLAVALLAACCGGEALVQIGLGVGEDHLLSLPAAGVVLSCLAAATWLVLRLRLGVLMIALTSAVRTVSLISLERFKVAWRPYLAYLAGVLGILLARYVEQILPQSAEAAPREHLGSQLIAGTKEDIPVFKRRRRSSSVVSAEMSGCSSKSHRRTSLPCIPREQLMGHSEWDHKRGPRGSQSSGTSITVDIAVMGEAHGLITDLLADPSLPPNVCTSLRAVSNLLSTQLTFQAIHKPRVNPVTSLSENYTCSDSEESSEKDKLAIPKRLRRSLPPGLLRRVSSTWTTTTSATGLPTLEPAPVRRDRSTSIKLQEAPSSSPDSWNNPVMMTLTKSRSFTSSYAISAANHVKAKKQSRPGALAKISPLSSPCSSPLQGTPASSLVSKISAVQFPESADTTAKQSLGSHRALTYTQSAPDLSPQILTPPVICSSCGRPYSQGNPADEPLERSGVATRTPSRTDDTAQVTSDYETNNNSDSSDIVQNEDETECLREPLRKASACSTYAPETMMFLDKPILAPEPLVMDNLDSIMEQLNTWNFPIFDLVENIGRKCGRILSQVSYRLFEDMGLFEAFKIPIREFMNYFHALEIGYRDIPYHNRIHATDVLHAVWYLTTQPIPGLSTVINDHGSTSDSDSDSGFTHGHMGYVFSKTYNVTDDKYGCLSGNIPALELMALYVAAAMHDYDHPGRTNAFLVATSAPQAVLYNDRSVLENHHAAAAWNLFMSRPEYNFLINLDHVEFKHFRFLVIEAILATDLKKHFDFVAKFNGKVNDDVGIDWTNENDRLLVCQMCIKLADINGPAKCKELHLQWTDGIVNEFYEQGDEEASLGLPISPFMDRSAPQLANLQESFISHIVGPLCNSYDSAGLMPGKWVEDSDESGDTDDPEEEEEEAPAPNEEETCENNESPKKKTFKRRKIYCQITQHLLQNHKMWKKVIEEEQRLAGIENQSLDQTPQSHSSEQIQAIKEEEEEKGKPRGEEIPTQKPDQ
observable: EC50

> print(dat)
                    structure.smiles.string   result
1  O=C(Nc1ccc(OC(F)F)nc1)NC1CCN(c2ncnc3c2nc(-c2ccccc2Cl)n3-c2ccc(Cl)cc2)CC1  > 10 µM

From: ChEMBL document CHEMBL4364254
